DC50 overview
target: HiBiT-BRM (Homo sapiens, UniProt P51531); construct: expressed in transfected cells; test: HiBiT-BRM cell-based degradation assay (Nano-Glo HiBiT Lytic Detection); conditions: HeLa cells expressing HiBiT-BRM, 24 h; read-out: BRM HiBit Degradation IC50
Sequence (P51531 whole entry): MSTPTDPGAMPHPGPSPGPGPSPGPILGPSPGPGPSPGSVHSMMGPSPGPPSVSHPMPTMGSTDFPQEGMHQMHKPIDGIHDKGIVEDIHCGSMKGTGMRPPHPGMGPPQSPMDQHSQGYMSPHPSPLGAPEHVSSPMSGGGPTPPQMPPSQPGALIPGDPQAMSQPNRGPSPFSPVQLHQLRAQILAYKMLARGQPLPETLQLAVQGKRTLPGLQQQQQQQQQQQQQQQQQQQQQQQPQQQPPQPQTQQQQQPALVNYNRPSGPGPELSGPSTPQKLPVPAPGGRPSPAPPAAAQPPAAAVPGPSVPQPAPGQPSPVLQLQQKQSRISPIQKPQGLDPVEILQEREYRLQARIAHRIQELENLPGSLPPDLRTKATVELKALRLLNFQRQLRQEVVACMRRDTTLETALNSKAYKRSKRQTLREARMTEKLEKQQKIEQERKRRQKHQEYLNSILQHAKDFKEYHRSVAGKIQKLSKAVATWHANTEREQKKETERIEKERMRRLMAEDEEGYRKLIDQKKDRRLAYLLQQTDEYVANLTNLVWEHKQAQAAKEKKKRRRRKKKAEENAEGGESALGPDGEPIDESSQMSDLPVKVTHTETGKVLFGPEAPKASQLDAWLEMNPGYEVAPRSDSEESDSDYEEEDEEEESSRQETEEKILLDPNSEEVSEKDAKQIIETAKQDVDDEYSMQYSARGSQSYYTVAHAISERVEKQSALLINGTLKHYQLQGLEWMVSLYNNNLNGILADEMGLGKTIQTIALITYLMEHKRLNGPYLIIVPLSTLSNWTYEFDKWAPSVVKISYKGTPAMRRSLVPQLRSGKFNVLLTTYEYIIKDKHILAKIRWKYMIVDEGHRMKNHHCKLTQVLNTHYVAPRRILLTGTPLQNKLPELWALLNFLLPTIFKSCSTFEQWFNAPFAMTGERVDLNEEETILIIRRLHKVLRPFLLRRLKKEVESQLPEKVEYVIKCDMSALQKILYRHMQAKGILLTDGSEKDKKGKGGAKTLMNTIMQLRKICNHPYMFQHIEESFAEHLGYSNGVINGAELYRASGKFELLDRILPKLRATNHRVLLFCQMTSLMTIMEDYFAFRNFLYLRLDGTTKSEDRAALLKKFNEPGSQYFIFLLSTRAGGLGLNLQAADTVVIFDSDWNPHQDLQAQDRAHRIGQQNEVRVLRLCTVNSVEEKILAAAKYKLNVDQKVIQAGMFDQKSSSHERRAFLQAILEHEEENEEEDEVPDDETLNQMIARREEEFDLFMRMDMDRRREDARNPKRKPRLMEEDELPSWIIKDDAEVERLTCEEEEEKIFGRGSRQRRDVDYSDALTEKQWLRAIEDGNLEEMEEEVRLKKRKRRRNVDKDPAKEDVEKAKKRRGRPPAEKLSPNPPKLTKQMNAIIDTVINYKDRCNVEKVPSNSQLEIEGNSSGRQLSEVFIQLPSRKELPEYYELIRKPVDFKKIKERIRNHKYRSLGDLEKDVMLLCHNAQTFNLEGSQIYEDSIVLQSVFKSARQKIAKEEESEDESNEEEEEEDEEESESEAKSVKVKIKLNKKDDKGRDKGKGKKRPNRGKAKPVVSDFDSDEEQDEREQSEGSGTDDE

Compound	DC50
Cc1ncsc1-c1ccc(CNC(=O)[C@@H]2C[C@@H](O)CN2C(=O)[C@@H](NC(=O)CCCCCCCCCNCc2ccc(CCNc3cc(-c4ccccc4O)nnc3N)cc2)C(C)(C)C)cc1	> 100 nM
Nc1nnc(-c2ccccc2O)cc1OCCc1ccc(C(=O)NCCCCCCNc2ccc3c(c2)C(=O)N(C2CCC(=O)NC2=O)C3=O)cc1 (stereo not drawn)	> 1000 nM
Cc1ncsc1-c1ccc([C@H](C)NC(=O)[C@@H]2C[C@@H](O)CN2C(=O)[C@@H](c2cc(OCCN3CCN(CC(=O)NCc4ccc(CCOc5cc(-c6ccccc6O)nnc5N)cc4)CC3)no2)C(C)C)cc1	> 10 nM

* * *

DC50 overview
target: HiBiT-BRM (Homo sapiens); construct: expressed in transfected cells; assay: HiBiT-BRM cell-based degradation assay (Nano-Glo HiBiT Lytic Detection); settings: HeLa cells expressing HiBiT-BRM, 24 h; read-out: BRM HiBit Degradation IC50
Counter-ions that a name gives are not always drawn.
Measured property: DC50

Molecule	Test system	Measured property	Result
Cc1ncsc1-c1ccc([C@H](C)NC(=O)[C@@H]2C[C@@H](O)CN2C(=O)[C@@H](c2cc(OCCN3CCN(CCC(=O)NCc4ccc(CCOc5cc(-c6ccccc6O)nnc5N)cc4)CC3)no2)C(C)C)cc1 [Compound 175]	HiBiT-BRM (Homo sapiens)	DC50	> 0.01 µM
Cc1ncsc1-c1ccc(CNC(=O)[C@@H]2C[C@@H](O)CN2C(=O)[C@@H](NC(=O)CN2CCC3(CCN(CCC(=O)NCc4ccc(CCOc5cc(-c6ccccc6O)nnc5N)cc4)CC3)CC2)C(C)(C)C)cc1 [Compound 266]	HiBiT-BRM (Homo sapiens)	DC50	> 1 µM
Cc1ncsc1-c1ccc(CNC(=O)[C@@H]2C[C@@H](O)CN2C(=O)[C@@H](NC(=O)COCCOCCOCCOCCOCC(=O)NCc2ccc(CCOc3cc(-c4ccccc4O)nnc3N)cc2)C(C)(C)C)cc1 [Compound 168]	HiBiT-BRM (Homo sapiens)	DC50	> 1 µM
Nc1nnc(-c2ccccc2O)cc1N1CCN(CCNC(=O)CCCCCCCCNc2cccc3c2C(=O)N(C2CCC(=O)NC2=O)C3=O)CC1 (stereo not drawn) [Compound 97]	HiBiT-BRM (Homo sapiens)	DC50	> 1 µM
Cc1ncsc1-c1ccc(CNC(=O)[C@@H]2C[C@@H](O)CN2C(=O)[C@@H](NC(=O)COCCOCCOCCOCCOCCNC(=O)c2ccc(CCOc3cc(-c4ccccc4O)nnc3N)cc2)C(C)(C)C)cc1 [Compound 167]	HiBiT-BRM (Homo sapiens)	DC50	> 1 µM
Nc1nnc(-c2ccccc2O)cc1OCCc1ccc(CNCCN2CCN(c3cccc4c3C(=O)N(C3CCC(=O)NC3=O)C4=O)CC2)cc1 (stereo not drawn) [Compound 110]	HiBiT-BRM (Homo sapiens)	DC50	> 0.01 µM
CN(CCc1ccc(CNC(=O)CCCCNc2cccc3nnn(C4CCC(=O)NC4=O)c(=O)c23)cc1)c1cc(-c2ccccc2O)nnc1N (stereo not drawn) [Compound 142]	HiBiT-BRM (Homo sapiens)	DC50	> 1 µM
Cc1ncsc1-c1ccc(CNC(=O)[C@@H]2C[C@@H](O)CN2C(=O)[C@@H](NC(=O)CCCOCCOCCNC(=O)c2ccc(CCOc3cc(-c4ccccc4O)nnc3N)cc2)C(C)(C)C)cc1 [Compound 24]	HiBiT-BRM (Homo sapiens)	DC50	> 1 µM
Cc1ncsc1-c1ccc([C@H](C)NC(=O)[C@@H]2C[C@@H](O)CN2C(=O)[C@@H](NC(=O)CCN2CCN(CCCCC(=O)NCc3ccc(CCOc4cc(-c5ccccc5O)nnc4N)cc3)CC2)C(C)(C)C)cc1 [Compound 265]	HiBiT-BRM (Homo sapiens)	DC50	> 1 µM
Nc1nnc(-c2ccccc2O)cc1OCCc1ccc(CNC(=O)CCCCOc2ccc3c(c2)C(=O)N(C2CCC(=O)NC2=O)C3)cc1 (stereo not drawn) [Compound 128]	HiBiT-BRM (Homo sapiens)	DC50	> 1 µM
Cc1ncsc1-c1ccc([C@H](C)NC(=O)[C@@H]2C[C@@H](O)CN2C(=O)[C@@H](NC(=O)CCCCCCCCCCCCCCCC(=O)NCc2ccc(CCOc3cc(-c4ccccc4O)nnc3N)cc2)C(C)(C)C)cc1 [Compound 172]	HiBiT-BRM (Homo sapiens)	DC50	> 0.01 µM
Cc1ncsc1-c1ccc(CNC(=O)[C@@H]2C[C@@H](O)CN2C(=O)[C@@H](NC(=O)CCCCCCCNC(=O)c2ccc(CCOc3cc(-c4ccccc4O)nnc3N)cc2)C(C)(C)C)cc1 [Compound 57]	HiBiT-BRM (Homo sapiens)	DC50	> 0.1 µM
Cc1ncsc1-c1ccc(CNC(=O)[C@@H]2C[C@@H](O)CN2C(=O)[C@@H](NC(=O)CCN2[C@@H]3CC[C@H]2CN(C(=O)c2ccc(CCOc4cc(-c5ccccc5O)nnc4N)cc2)C3)C(C)(C)C)cc1 [Compound 216]	HiBiT-BRM (Homo sapiens)	DC50	> 1 µM
Nc1nnc(-c2ccccc2O)cc1NCCc1ccc(CNC(=O)CCCCNc2cccc3nnn(C4CCC(=O)NC4=O)c(=O)c23)cc1 (stereo not drawn) [Compound 141]	HiBiT-BRM (Homo sapiens)	DC50	> 1 µM
Nc1nnc(-c2ccccc2O)cc1OCCc1ccc(C(=O)NCCCCCCCCNc2ccc3c(c2)C(=O)N(C2CCC(=O)NC2=O)C3=O)cc1 (stereo not drawn) [Compound 64]	HiBiT-BRM (Homo sapiens)	DC50	> 1 µM
Nc1nnc(-c2ccccc2O)cc1OCCc1ccc(CNC(=O)CCCCOc2cccc3c2CN(C2CCC(=O)NC2=O)C3=O)cc1 (stereo not drawn) [Compound 130]	HiBiT-BRM (Homo sapiens)	DC50	> 1 µM
Cc1ncsc1-c1ccc([C@H](C)NC(=O)[C@@H]2C[C@@H](O)CN2C(=O)[C@@H](c2cc(OCCN3CC(C4CN(C(=O)c5ccc(CCOc6cc(-c7ccccc7O)nnc6N)cc5)C4)C3)no2)C(C)C)cc1 [Compound 222]	HiBiT-BRM (Homo sapiens)	DC50	> 0.1 µM
Nc1nnc(-c2ccccc2O)cc1OCCc1ccc(C(=O)NCCCCCCCCNc2cccc3c2CN(C2CCC(=O)NC2=O)C3=O)cc1 (stereo not drawn) [Compound 56]	HiBiT-BRM (Homo sapiens)	DC50	> 1 µM
Nc1nnc(-c2cc(F)ccc2O)cc1OCCc1ccc(CNCCCCCOc2cccc3c2C(=O)N(C2CCC(=O)NC2=O)C3=O)cc1 (stereo not drawn) [Compound 118, formic acid salt]	HiBiT-BRM (Homo sapiens)	DC50	> 0.1 µM
Cc1ncsc1-c1ccc([C@H](C)NC(=O)[C@@H]2C[C@@H](O)CN2C(=O)[C@@H](c2cc(OCCNCCCCC(=O)NCc3ccc(CCOc4cc(-c5ccccc5O)nnc4N)cc3)no2)C(C)C)cc1 [Compound 218]	HiBiT-BRM (Homo sapiens)	DC50	> 0.1 µM
Nc1nnc(-c2ccccc2O)cc1OCCc1ccc(CNC(=O)C2CC2CNC(=O)COc2cccc3c2C(=O)N(C2CCC(=O)NC2=O)C3=O)cc1 (stereo not drawn) [Compound 7]	HiBiT-BRM (Homo sapiens)	DC50	> 1 µM
